assay.protocol: growth inhibitors of wild-type E. coli, primary screen, strain BW25113, expanded library, OD600 (AID 710);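 also: growth measured after 20 h incubation at 37 °C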
recorded.conditions: OD600 absorbance, at 100 µM, active compounds read high
Among all 98,000 compounds or so, about 150 (0.15%) were called active. The sample holds actives, similar compounds and a random draw of the others, so the mix is not that of the screen.
measurement.label: growth inhibition (%)

input.smiles: CCOC(=O)CSc1ncc(-c2cccc(Cl)c2)cn1
recorded.measurement: 2

input.smiles: Cc1cc(C)c2cc(CN(Cc3nnnn3Cc3ccc(F)cc3)C3CCCC3)c(=O)[nH]c2c1
recorded.measurement: -11

input.smiles: CCCN(Cc1cc2cccc(C)c2[nH]c1=O)S(C)(=O)=O
recorded.measurement: 2

input.smiles: CCN1CCN(c2ccc([N+](=O)[O-])cc2C(=O)c2ccc(Cl)cc2)CC1
recorded.measurement: 8

input.smiles: Cn1sc(NC(=O)c2ccccc2)nc1=O
recorded.measurement: -5

input.smiles: CCCCn1c(=S)[nH]c2cc(S(=O)(=O)N3CCCCC3)ccc21
recorded.measurement: 2

src = PubChem BioAssay AID710
